- EXPERIMENTAL_TARGET: HCV NS5B RdRp genotype 1b (Hepatitis C virus genotype 1b, UniProt Q9WMX2)
- Construct: The protein was expressed with an 18 amino acid C-terminal truncation to enhance the solubility; made in house; host or cells: E. coli BL21(DE3), pET21a vector
- Sequence (Q9WMX2 2420-2992): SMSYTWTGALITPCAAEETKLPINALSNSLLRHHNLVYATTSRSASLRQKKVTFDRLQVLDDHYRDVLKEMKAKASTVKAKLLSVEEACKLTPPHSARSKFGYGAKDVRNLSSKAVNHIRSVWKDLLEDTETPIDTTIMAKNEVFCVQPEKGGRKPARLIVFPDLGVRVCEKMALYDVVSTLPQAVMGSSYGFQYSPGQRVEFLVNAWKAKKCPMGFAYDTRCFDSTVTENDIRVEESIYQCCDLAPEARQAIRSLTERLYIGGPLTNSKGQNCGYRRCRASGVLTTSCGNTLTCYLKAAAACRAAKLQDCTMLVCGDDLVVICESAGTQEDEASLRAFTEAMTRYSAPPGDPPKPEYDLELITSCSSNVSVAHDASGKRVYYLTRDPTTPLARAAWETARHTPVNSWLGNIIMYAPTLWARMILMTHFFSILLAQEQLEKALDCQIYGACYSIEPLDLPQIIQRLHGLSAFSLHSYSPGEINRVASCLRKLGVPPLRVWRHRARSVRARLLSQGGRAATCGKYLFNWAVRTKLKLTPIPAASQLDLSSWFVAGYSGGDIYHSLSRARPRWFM
- TEST_DETAILS: Standard HCV NS5B RdRp enzyme assay
- Assay type: biochemical
- DETAILS: Table 1a; HCV NS5B RdRp genotype 1b; read-out: IC50
ENDPOINT_NAME: IC50

INSERT INTO measurements (compound, val) VALUES
  ('CCC[C@H](CO)NC(=O)c1cccc(-c2ccc3oc(-c4ccc(F)cc4)c(C(=O)NC)c3c2)c1 [drawing 228]', '1000 to 10000 nM'),
  ('CNC(=O)c1c(-c2ccc(F)cc2)oc2ccc(-c3cccc(C(=O)N4CC[C@@H](O)C4)c3)cc12', '1000 to 10000 nM'),
  ('CNC(=O)c1c(-c2ccc(F)cc2)oc2ccc(-c3ccc(OC)nc3OC)cc12', '> 10000 nM'),
  ('CNC(=O)c1c(-c2ccc(F)cc2)oc2ccc(-c3ccc(C(=O)O)cc3)cc12', '250 to 1000 nM'),
  ('CNC(=O)c1c(-c2ccc(F)cc2)oc2ccc(-c3cccc(C(=O)NCc4cccc(C)c4)c3)cc12', '< 250 nM'),
  ('CNC(=O)c1c(-c2ccc(F)cc2)oc2ccc(-c3cccc(C(=O)NC(C)(C)CC(C)=O)c3)cc12', '250 to 1000 nM'),
  ('CNC(=O)c1c(-c2ccc(F)cc2)oc2ccc(-c3cccc(C(=O)NC(C)(C)c4ccc(OC)cc4)c3)cc12', '< 250 nM'),
  ('CNC(=O)c1c(-c2ccc(F)cc2)oc2ccc(-c3cccc(C(=O)Nc4ccon4)c3)cc12', '250 to 1000 nM'),
  ('CNC(=O)c1c(-c2ccc(F)cc2)oc2ccc(-c3cccc(C(=O)N(CCOC)CCOC)c3)cc12', '1000 to 10000 nM'),
  ('CNC(=O)c1c(-c2ccc(F)cc2)oc2ccc(-c3cccc(C(=O)N(C)C)c3)cc12', '1000 to 10000 nM'),
  ('CNC(=O)c1c(-c2ccc(F)cc2)oc2ccc(-c3ccc(C(=O)NCCO)cc3)cc12', '> 10000 nM'),
  ('CNC(=O)c1c(-c2ccc(F)cc2)oc2ccc(-c3ccc(Cl)c(C(=O)O)c3)cc12', '1000 to 10000 nM'),
  ('CNC(=O)c1c(-c2ccc(F)cc2)oc2ccc(-c3cccc(C(=O)NCC4CC4)c3)cc12', '< 250 nM'),
  ('CNC(=O)c1c(-c2ccc(F)cc2)oc2ccc(-c3cccc(C(=O)NC(C)(C)c4ccccc4)c3)c(N)c12', '< 250 nM'),
  ('CNC(=O)c1c(-c2ccc(F)cc2)oc2ccc(-c3cccc(C(=O)N(C)S(=O)(=O)c4ccccc4)c3)cc12', '> 1390 nM'),
  ('CNC(=O)c1c(-c2ccc(F)cc2)oc2ccc(-c3cccc(C(=O)NCc4cccc(O)c4)c3)cc12', '250 to 1000 nM'),
  ('CNC(=O)c1c(-c2ccc(F)cc2)oc2ccc(-c3ccc(CCC(=O)O)cc3)cc12', '1000 to 10000 nM'),
  ('CNC(=O)c1c(-c2ccc(F)cc2)oc2ccc(-c3cc(Br)cnc3F)cc12', '> 10000 nM'),
  ('CNC(=O)c1c(-c2ccc(F)cc2)oc2ccc(-c3cccc(C(=O)NCC4CCCO4)c3)cc12 (stereo not drawn)', '< 250 nM'),
  ('CNC(=O)c1c(-c2ccc(F)cc2)oc2ccc(-c3cccc(C(=O)N4CCCC(C)C4)c3)cc12 (stereo not drawn)', '1000 to 10000 nM'),
  ('CNC(=O)c1c(-c2ccc(F)cc2)oc2ccc(-c3cccc(C(=O)NCc4cnc(C)cn4)c3)cc12', '250 to 1000 nM');
